# Assayed Target: human TLR9 (Homo sapiens)
# Sequence (Q9NR96 26-1032): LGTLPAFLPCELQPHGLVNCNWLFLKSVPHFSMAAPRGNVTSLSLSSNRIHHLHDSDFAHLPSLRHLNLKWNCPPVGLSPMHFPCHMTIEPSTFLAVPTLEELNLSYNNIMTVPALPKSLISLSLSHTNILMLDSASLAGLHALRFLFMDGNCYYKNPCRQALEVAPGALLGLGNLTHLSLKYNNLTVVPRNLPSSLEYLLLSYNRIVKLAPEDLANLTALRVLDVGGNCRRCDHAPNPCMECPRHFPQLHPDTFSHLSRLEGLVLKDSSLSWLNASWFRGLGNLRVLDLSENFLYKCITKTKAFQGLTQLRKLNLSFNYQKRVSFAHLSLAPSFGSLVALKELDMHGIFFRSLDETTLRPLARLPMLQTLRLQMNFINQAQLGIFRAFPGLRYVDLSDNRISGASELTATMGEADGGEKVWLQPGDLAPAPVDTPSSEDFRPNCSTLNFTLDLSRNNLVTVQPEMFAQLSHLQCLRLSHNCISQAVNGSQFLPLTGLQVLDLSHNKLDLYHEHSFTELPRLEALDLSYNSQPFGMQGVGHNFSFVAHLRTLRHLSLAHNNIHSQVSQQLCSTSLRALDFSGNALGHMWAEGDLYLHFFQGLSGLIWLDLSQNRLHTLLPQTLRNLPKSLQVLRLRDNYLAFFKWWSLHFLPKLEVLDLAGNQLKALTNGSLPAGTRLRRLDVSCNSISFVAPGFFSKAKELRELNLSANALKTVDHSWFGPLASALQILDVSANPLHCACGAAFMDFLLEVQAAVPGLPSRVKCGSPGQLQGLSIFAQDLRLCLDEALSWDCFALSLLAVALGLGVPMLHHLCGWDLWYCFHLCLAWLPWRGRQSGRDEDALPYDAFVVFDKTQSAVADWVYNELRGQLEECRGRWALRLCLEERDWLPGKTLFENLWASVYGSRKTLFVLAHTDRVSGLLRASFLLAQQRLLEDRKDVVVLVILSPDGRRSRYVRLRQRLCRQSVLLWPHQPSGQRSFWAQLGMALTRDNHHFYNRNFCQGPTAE
# Protocol Summary: TLR9 inhibition reporter assay (HEK-Blue SEAP reporter, ODN2006 stimulation)
# Conditions: HEK-Blue cells overexpressing human TLR9, SEAP reporter, ODN2006 5 nM, 22 hour incubation
pIC50: −log10 of the molar value.
Reported pIC50 values follow for various molecules
Quantity Name: pIC50

Molecule: CCn1cc(-c2[nH]c3ccc(C4CCN(C5COC5)CC4)cc3c2C(C)C)c(C)c(C)c1=O
Assayed Target: human TLR9 (Homo sapiens)
Recorded Measurement: 4.76
//
Molecule: Cc1nc(-c2[nH]c3ccc(C4CCN(C5CCOC5)CC4)cc3c2C(C)C)cn(C)c1=O (stereo not shown)
Assayed Target: human TLR9 (Homo sapiens)
Recorded Measurement: 5.64
//
Molecule: Cc1cc(-c2[nH]c3ccc(C4CCN(CCC(C)(C)O)CC4)cc3c2C(C)C)c(C)n(C)c1=O
Assayed Target: human TLR9 (Homo sapiens)
Recorded Measurement: 5.36
//
Molecule: Cc1cc(-c2[nH]c3ccc(C4CCNCC4)cc3c2C(C)C)cn(CC(C)C)c1=O
Assayed Target: human TLR9 (Homo sapiens)
Recorded Measurement: 5.88
